tested on: WT EGFR cell line A-431; assay: Cell proliferation, WT EGFR A431 (CellTiter-Glo, 72 h); format: cell-based; conditions: Homo sapiens, A-431, 72 h, A431, 72 h proliferation; read-out: EGFR WT A431 GI50
property-label: GI50 (µM)

INSERT INTO measurements (compound, measured_value) VALUES
  ('C=CC(=O)Nc1cc(Nc2nccc(Nc3cc(Cl)c(F)cc3C(C)(C)O)n2)c(OC)cc1N1C[C@@H]2CN(C)C[C@@H]21 [Compound 96]', 0.0178),
  ('C=CC(=O)Nc1cc(Nc2ncnc(Nc3ccc4[nH]ccc4c3C(C)(C)O)n2)c(OC)cc1N(C)CCN(C)C [Compound 94]', 0.0165),
  ('C=CC(=O)Nc1cc(Nc2ncnc(Nc3cc(Cl)c(F)cc3C(C)(O)CC)n2)c(OC)cc1N1CC[C@@H](N(C)C)C1 (single isomer, unassigned) [Compound 69]', 0.0122),
  ('C=CC(=O)Nc1cc(Nc2ncnc(Nc3cc(Cl)c(F)cc3C(C)(C)O)n2)c(OC)cc1N1CC(CN(C)C)C1 [Compound 39]', 0.0265),
  ('C=CC(=O)Nc1cc(Nc2nccc(Nc3cc(Cl)c(F)cc3C(C)(C)O)n2)c(OC)cc1N1CC[C@@H](CN(C)C)C1 [Compound 86]', 0.0458),
  ('C=CC(=O)Nc1cc(Nc2ncnc(Nc3cc(Cl)c(F)cc3C(C)(O)CC)n2)c(OC)cc1N(C)CCN(C)C (stereo not drawn) [Compound 67]', 0.0187);

###

target: WT EGFR (Homo sapiens); assay: WT EGFR cellular phosphorylation inhibition in A-431 (hEGF stimulated, MSD); conditions: A431 cells, 4 h compound, then 100 ng/ml hEGF 10 min;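 also: electrochemiluminescence read-out of EGFR Tyr1068 phosphorylation expressed as ratio to total EGFR, cells kept in medium with 1% FBS, compounds tested as a concentration series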
Sequence (P00533 25-1210): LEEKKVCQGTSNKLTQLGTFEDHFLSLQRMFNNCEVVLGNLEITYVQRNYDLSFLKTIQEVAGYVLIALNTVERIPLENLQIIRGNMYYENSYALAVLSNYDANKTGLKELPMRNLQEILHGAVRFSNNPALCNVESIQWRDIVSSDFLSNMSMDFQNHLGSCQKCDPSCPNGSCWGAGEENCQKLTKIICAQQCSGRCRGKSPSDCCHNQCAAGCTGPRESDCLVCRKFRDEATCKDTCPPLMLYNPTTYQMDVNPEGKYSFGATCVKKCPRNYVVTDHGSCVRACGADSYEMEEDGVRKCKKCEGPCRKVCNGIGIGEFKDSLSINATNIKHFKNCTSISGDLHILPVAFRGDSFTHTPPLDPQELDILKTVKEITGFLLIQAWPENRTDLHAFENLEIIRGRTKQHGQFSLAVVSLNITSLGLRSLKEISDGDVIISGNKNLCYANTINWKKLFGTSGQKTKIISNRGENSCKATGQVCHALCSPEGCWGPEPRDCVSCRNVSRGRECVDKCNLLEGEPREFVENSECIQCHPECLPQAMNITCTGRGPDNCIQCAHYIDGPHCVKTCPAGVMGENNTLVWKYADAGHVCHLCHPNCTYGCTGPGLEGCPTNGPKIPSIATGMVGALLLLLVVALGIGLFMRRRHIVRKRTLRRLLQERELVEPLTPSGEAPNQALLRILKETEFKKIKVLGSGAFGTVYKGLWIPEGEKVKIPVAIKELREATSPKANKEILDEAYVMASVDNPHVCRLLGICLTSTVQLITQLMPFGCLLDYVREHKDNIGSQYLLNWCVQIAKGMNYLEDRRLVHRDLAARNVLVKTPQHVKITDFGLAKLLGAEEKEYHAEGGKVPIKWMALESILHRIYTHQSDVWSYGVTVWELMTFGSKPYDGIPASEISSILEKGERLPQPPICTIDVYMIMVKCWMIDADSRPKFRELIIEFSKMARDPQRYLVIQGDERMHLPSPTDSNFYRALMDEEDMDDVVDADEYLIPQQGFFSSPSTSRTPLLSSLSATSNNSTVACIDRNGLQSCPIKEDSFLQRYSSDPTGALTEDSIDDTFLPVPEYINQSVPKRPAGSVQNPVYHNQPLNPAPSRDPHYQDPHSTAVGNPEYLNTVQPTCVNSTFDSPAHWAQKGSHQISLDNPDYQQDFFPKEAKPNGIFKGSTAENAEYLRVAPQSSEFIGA
pIC50: −log10 of the molar value. Counter-ions that a name gives are not always drawn.
Here the recorded pIC50 is given for each entry.
property-label: pIC50

INSERT INTO assay_data (molecule, measured_value) VALUES
  ('C=CC(=O)Nc1cc(Nc2ncnc(Nc3ccccc3C3(O)CC3)n2)c(OC)cc1N(C)CCN(C)C [Compound 2]', 7.67),
  ('C=CC(=O)Nc1cc(Nc2ncnc(Nc3cnc(F)cc3C(C)(C)O)n2)c(OC)cc1N(C)CCN(C)C [Compound 3]', 6.99),
  ('C=CC(=O)Nc1cc(Nc2nccc(Nc3cc(Cl)c(F)cc3C(C)(O)C(F)(F)F)n2)c(OC)cc1N1CC[C@@H](N(C)C)C1 (stereo partly shown) [Compound 92]', 6.12),
  ('C=CC(=O)Nc1cc(Nc2ncnc(Nc3cc(Cl)c(F)cc3C(C)(C)O)n2)c(OC)cc1N1C[C@@H](F)[C@@H](N(C)C)C1 [Compound 93]', 7.29),
  ('C=CC(=O)Nc1cc(Nc2ncnc(Nc3cc(Cl)c(F)cc3C(C)(C)O)n2)c(OC)cc1N1CC(CN(C)C)C1 [Compound 39]', 7.52),
  ('C=CC(=O)Nc1cc(Nc2ncnc(Nc3cc(F)c(F)cc3C(C)(C)O)n2)c(OC)cc1N(C)CCN(C)C [Compound 4]', 7.95),
  ('[2H]C([2H])([2H])N(CCN(C)c1cc(OC)c(Nc2ncnc(Nc3cc(F)c(F)cc3C(C)(C)O)n2)cc1NC(=O)C=C)C([2H])([2H])[2H] [Compound 22]', 7.91),
  ('C=CC(=O)Nc1cc(Nc2nccc(Nc3cc(Cl)c(F)cc3C(C)(C)O)n2)c(OC)cc1N1CCC[C@@H]1CN1CCC1 [Compound 98, formic acid salt]', 6.72),
  ('C=CC(=O)Nc1cc(Nc2ncnc(Nc3cc(F)c(Cl)cc3C(C)(C)O)n2)c(OC)cc1N(C)CCN(C)C [Compound 12]', 8.12),
  ('C=CC(=O)Nc1cc(Nc2ncnc(Nc3cc(F)c(F)cc3C(C)(O)CC)n2)c(OC)cc1N(C)CCN(C)C (stereo not shown) [Compound 49]', 7.64),
  ('C=CC(=O)Nc1cc(Nc2ncnc(Nc3cc(F)c(C4CC4)cc3C(C)(C)O)n2)c(OC)cc1N1CC[C@@H]2CN(C)C[C@@H]21 [Compound 45]', 8.12),
  ('C=CC(=O)Nc1cc(Nc2ncnc(Nc3cc(F)c(C4CC4)cc3C(C)(C)O)n2)c(OC)cc1N1CCC[C@@H]1CN(C)C [Compound 46]', 8.06),
  ('C=CC(=O)Nc1cc(Nc2nccc(Nc3cc(Cl)c(F)cc3C(C)(C)O)n2)c(OC)cc1N1CC[C@@H](CN(C)C)C1 [Compound 86]', 6.71);

###

Here the recorded GI50 is given for each entry.
system: WT EGFR cell line A-431; assay: Cell proliferation, WT EGFR A431 (CellTiter-Glo, 72 h); type: cell-based; settings: Homo sapiens, A-431, 72 h, A431, 72 h proliferation; read-out: EGFR WT A431 GI50;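 also: proliferation from a luminescent ATP viability signal, expressed as 100 × (treated minus time-zero plate) over (DMSO control minus time-zero plate), cells grown with 10% FBS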
Counter-ions that a name gives are not always drawn.
property-label: GI50 (µM)

INSERT INTO results (compound, measured_value) VALUES
  ('C=CC(=O)Nc1cc(Nc2ncnc(Nc3cc(F)c(F)cc3C(C)(C)O)n2)c(OC)cc1N(C)CCN1CCCC1', 0.0428),
  ('C=CC(=O)Nc1cc(Nc2ncnc(Nc3ccc(F)c(F)c3C(C)(C)O)n2)c(OC)cc1N(C)CCN(C)C', 0.0831),
  ('C=CC(=O)Nc1cc(Nc2ncnc(Nc3ccc(C(F)(F)F)cc3C(C)(C)O)n2)c(OC)cc1N(C)CCN(C)C', 0.0225),
  ('C=CC(=O)Nc1cc(Nc2ncnc(Nc3cc(Cl)c(F)cc3C(C)(C)O)n2)c(OC)cc1N(C)C[C@H]1CCCN1C', 0.0124),
  ('C=CC(=O)Nc1cc(Nc2ncnc(Nc3cc(Cl)c(Cl)cc3C(C)(C)O)n2)c(OC)cc1N1CC[C@@H](N(C)C)C1', 0.0124),
  ('C=CC(=O)Nc1cc(Nc2ncnc(Nc3cc(Cl)c(F)cc3C(C)(C)O)n2)c(OC)cc1N(C)CCN1CCCCC1', 0.0578),
  ('C=CC(=O)Nc1cc(Nc2ncnc(Nc3cc(Cl)c(F)cc3C(C)(C)O)n2)c(OC)cc1N1CCC[C@@H]1CN(C)C', 0.0042),
  ('C=CC(=O)Nc1cc(Nc2nccc(Nc3cc(Cl)c(F)cc3C(C)(C)O)n2)c(OC)cc1N1CC[C@H](N(C)C)C1', 0.0848),
  ('C=CC(=O)Nc1cc(Nc2ncnc(Nc3cc(F)c(F)cc3C(C)(C)O)n2)c(OC)cc1N1CCC[C@@H]1CN(C)C', 0.0041),
  ('C=CC(=O)Nc1cc(Nc2nccc(Nc3cc(Cl)c(F)cc3C(C)(C)O)n2)c(OC)cc1N1CC[C@@H](NC)C1 [Compound 80, TFA salt]', 0.0815),
  ('C=CC(=O)Nc1cc(Nc2ncnc(Nc3cc(F)c(F)cc3C(C)(C)O)n2)c(OC)cc1N1CC[C@@H]1CN(C)C', 0.0231),
  ('C=CC(=O)Nc1cc(Nc2ncnc(Nc3ccccc3C(C)(C)O)n2)c(OC)cc1N1CCC[C@@H](N(C)C)C1', 0.335),
  ('C=CC(=O)Nc1cc(Nc2ncnc(Nc3cc(F)c(Cl)cc3C(C)(C)O)n2)c(OC)cc1N1CC[C@@H]2CN(C)C[C@@H]21', 0.0138),
  ('C=CC(=O)Nc1cc(Nc2ncnc(Nc3ccccc3C(C)(O)C(F)(F)F)n2)c(OC)cc1N(C)CCN(C)C (stereo not drawn)', 0.0149),
  ('C=CC(=O)Nc1cc(Nc2ncnc(Nc3cc(F)c(F)cc3C(C)(O)CC)n2)c(OC)cc1N1CCC[C@H]1CN(C)C (stereo partly drawn)', 0.178),
  ('COc1cc(N(C)CCN(C)C)c(NC(=O)/C=C/CN(C)C)cc1Nc1ncnc(Nc2cc(F)c(F)cc2C(C)(C)O)n1', 0.117),
  ('C=CC(=O)Nc1cc(Nc2ncnc(Nc3ccccc3C3(O)CC3)n2)c(OC)cc1N(C)CCN(C)C', 0.0266),
  ('C=CC(=O)Nc1cc(Nc2ncnc(Nc3cc(F)c(Cl)c(F)c3C(C)(C)O)n2)c(OC)cc1N(C)CCN(C)C', 0.0526),
  ('C=CC(=O)Nc1cc(Nc2ncnc(Nc3cnc(F)cc3C(C)(C)O)n2)c(OC)cc1N(C)CCN(C)C', 0.0693),
  ('C=CC(=O)Nc1cc(Nc2ncnc(Nc3cc(F)c(F)cc3C(C)(C)O)n2)c(OC)cc1N(C)CCN1CCCCC1', 0.0555),
  ('C=CC(=O)Nc1cc(Nc2ncnc(Nc3cc(Cl)c(Cl)cc3C(C)(C)O)n2)c(OC)cc1N(C)CCN(C)C', 0.0079),
  ('C=CC(=O)Nc1cc(Nc2ncnc(Nc3cc(Cl)c(F)cc3C(C)(C)O)n2)c(OC)cc1N(C)CCN(C)C', 0.013),
  ('C=CC(=O)Nc1cc(Nc2nccc(Nc3cc(Cl)c(F)cc3C(C)(C)O)n2)c(OC)cc1N1C[C@@H](F)[C@@H](N(C)C)C1', 0.124),
  ('C=CC(=O)Nc1cc(Nc2nccc(Nc3cc(Cl)c(F)cc3C(C)(C)O)n2)c(OC)cc1N(C)CCN(C)C', 0.0416),
  ('C=CC(=O)Nc1cc(Nc2ncc(C#N)c(Nc3cc(Cl)c(F)cc3C(C)(C)O)n2)c(OC)cc1N1CC[C@@H](N(C)C)C1', 0.0511),
  ('C=CC(=O)Nc1cc(Nc2ncnc(Nc3cc(F)c(F)cc3C(C)(C)O)n2)c(OC)cc1N1CC[C@H]2CN(C)C[C@H]21', 0.329),
  ('C=CC(=O)Nc1cc(Nc2ncnc(Nc3cc(Cl)c(F)cc3C(C)(O)CC)n2)c(OC)cc1N1CC[C@@H]1CN(C)C (stereo partly drawn)', 0.0143);

This collection of values is drawn from patent US20230293535A1.
